protocolDescription: binders of probe aHhip on microarray, primary screen, stem cell growth factor project, biochemical, small-molecule microarray, fluorescence 635/667 (AID 1087);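 further: score merges spot fluorescence at 667nm with spot signal to noise ratio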
conditionContext: higher = more signal
Overview of recorded composite z-score for various molecules
Form field (numeric): enter value without unit.

> print(dat)
                                   molecule      endpointlabel  testvalue
1  CO[C@@H]1COC(=O)[C@H](CCSC)NC(=O)CC=C[C@@H](C)COC(=O)[C@@H]2CCCN2C(=O)CC=C[C@H]1C  composite z-score    -0.0618
2  COC(=O)CC=C[C@@H](C)[C@@H](C=NOC(C)CN1CCCCc2nc(C)c(C)cc21)NS(=O)(=O)c1ccc(C)cc1 (stereo partly drawn)  composite z-score     0.0735
3  CC(=O)OC[C@H]1O[C@H](C#CCC2CCCCC2)C=C[C@@H]1OC(C)=O  composite z-score    -0.0618
4  CC(C)[C@@H](OCc1ccccc1)[C@H](C)C=NO[C@H](C)c1cn([C@@H]2COC[C@H]2O)nn1  composite z-score      0.165
5  O=C1C2=CC[C@H]3C(=O)N(c4ccc(F)cc4F)C(=O)[C@H]3[C@H]2[C@H](O)[C@@H]2O[C@H]12  composite z-score    -0.0994

Summary for this molecule, `CN1CCc2nc(-c3ccccc3)c(-c3ccccc3)cc2C1` : composite z-score is -0.148

Summary for this molecule, `O=C1[C@H]2[C@H]3[C@H](O)[C@H](O)CC(=NOCc4ccccc4)[C@@H]3CC[C@H]2C(=O)N1c1cccc(Oc2ccccc2)c1` : composite z-score is 0.141

Summary for this molecule, `CC(C)=NO[C@H](C)c1cn([C@@H]2COC[C@H]2O)nn1` : composite z-score is -0.0618
